FYI, the data here is from patent US5290926A.

Quick reference for Relative Activity among some compounds
Target: histidinol dehydrogenase from cabbage (Brassica oleracea var. capitata)
Construct: Spring cabbage heads are homogenized using a kitchen mixer; from tissue; host or cells: mature spring cabbage heads
Sequence (P24226 32-469): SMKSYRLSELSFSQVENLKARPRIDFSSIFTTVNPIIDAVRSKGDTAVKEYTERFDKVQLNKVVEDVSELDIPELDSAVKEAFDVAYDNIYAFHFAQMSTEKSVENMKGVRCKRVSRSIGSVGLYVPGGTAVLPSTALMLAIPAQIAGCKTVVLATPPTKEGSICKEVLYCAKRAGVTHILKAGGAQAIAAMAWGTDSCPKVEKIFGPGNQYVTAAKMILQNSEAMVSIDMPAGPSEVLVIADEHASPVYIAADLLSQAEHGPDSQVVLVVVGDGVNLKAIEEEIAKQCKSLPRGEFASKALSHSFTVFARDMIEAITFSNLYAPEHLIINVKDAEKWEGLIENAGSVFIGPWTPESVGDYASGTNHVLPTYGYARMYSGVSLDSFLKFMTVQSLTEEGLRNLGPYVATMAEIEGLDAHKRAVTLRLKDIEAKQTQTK
Experiment: Histidinol dehydrogenase enzyme assay (spectrophotometric, NAD+ reduction at 340 nm)
Type: biochemical
Conditions: metal ion 0.5 mM; activity after 3 min reaction time; None = 100
Lab book: enter the figure in %, no units written.

Use these answered entries as a reference point.
[Mn+2] [Mn^2+]; 126
[Ni+2] [Ni^2+]; 46
[Ba+2] [Ba^2+]; 65
[Cu+2] [Cu^2+]; 24
[Mg+2] [Mg^2+]; 54
[Ca+2] [Ca^2+]; 36

INPUT: What value of Relative Activity has been reported for the following compound? [Zn+2] [Zn^2+]
OUTPUT: 34
